Test system: UO-31 renal
Test: NCI tumour cell line growth inhibition, 48 h
test readout: TGI

Check out these entries, answers already filled in.
| molecule | test readout | measured result |
| --- | --- | --- |
| NC(N)=N/N=C/c1c(Cl)nc2n1CCS2 | TGI | > 100 µM |
| O=C(NC1C(=O)NC(CCc2ccccc2)NC1=O)OCc1ccccc1 (stereo unspecified) | TGI | > 100 µM |
| O=C(O)CC(CC(=O)O)n1cccc1 | TGI | > 100 µM |
| O=C1Nc2ccccc2C1(O)Cc1ccccn1 (stereo unspecified) | TGI | > 100 µM |
| COc1ccc(-c2c(C#N)c(N)nc(Sc3ccccc3N)c2C#N)cc1 | TGI | > 100 µM |

// below: TGI requested for another molecule
### Prompt Look up TGI for this molecule: COc1cc(/C=C2\CC3C4CC=C5C[C@@H](N6CCCC6)CC[C@]5(C)C4CC[C@]3(C)[C@H]2OC(C)=O)ccc1OCCCn1ccnc1 (stereo partly specified)
### Response > 50 µM

* * *

System: UO-31 renal
Test: NCI tumour cell line growth inhibition, 48 h
Hi there, I'd appreciate the recorded TGI for every entry that follows.

| compound | target or test system | TGI |
| --- | --- | --- |
| C=CCC(NCc1ccccc1)c1cn(C(=O)OCC)c2ccccc12 (stereo unspecified) | UO-31 renal | > 100 µM |
| O=C(O)c1cc(-c2ccc3cc(O)c(O)cc3c2)ccc1O | UO-31 renal | > 12.5 µM |

Give TGI for all compounds that follow.
1. O=C1NCC2(CCN(CC3COc4ccccc4O3)CC2)N1c1ccccc1 (stereo unspecified)
2. COc1cc(CNc2ccc(C)cc2)cc(OC)c1OC
3. COC(=O)C1=CCC[C@H]2[C@@]1(COC(C)=O)CC[C@@H](C)[C@]2(C)CC(=O)c1ccoc1
4. NC(=S)N/N=C1\CCc2ccccc2C1

### Response
> 100 µM
> 100 µM
> 50 µM
> 100 µM

* * *

Tested on: TK-10 renal
Test: NCI tumour cell line growth inhibition, 48 h
test readout: TGI

| compound | measured result |
| --- | --- |
| CCCCCCCCCCCCNC(=S)OCCCC | > 100 µM |
| O=C1/C(=C/c2ccccc2)CN(C(=O)/C=C/c2ccccc2)C/C1=C\c1ccccc1 | 65.3 µM |
| CCOC(=O)CCC(NC(=O)c1ccc(Oc2nc3cc(N)cc(N)c3nc2-c2ccccc2)cc1)C(=O)OCC (centres undefined) | > 100 µM |

// below: TGI requested for another compound
### Prompt What TGI appears in the records for this compound with TK-10 renal? `O=C(Nc1ccc(Br)cc1)c1cc(Br)ccc1O`
### Response > 22.1 µM

* * *

Tested on: HT29 colon
Assay: NCI tumour cell line growth inhibition, 48 h
test readout: GI50

Check out these entries, answers already filled in.
| compound structure | GI50 |
| --- | --- |
| CCOC(=O)c1c(C)n(Cc2ccc(Cl)cc2Cl)c2c1cc(O)c1[nH]c(Cc3ccccc3)nc12 | 3.89 µM |
| O=C(N/N=C/c1coc2ccc(Cl)cc2c1=O)c1cc(O)c(O)c(O)c1 | 63.8 µM |

// below: GI50 requested for another compound
### Prompt What GI50 appears in the records for this compound with HT29 colon? `O=NN(CC(=O)NNc1ccccc1)CC(=O)NNc1ccccc1`
### Response > 100 µM

FYI, the data here is from PubChem BioAssay (NCI).
